Source of measurements: patent US4473572A

# EXPERIMENTAL SYSTEM: α1-adrenoceptor (Rattus norvegicus, UniProt P43140)
# Construct: isolated anococcygeus muscle of the rat; from tissue; host or cells: anococcygeus muscle of male rats (250-360 g)
# Sequence (P43140 whole entry): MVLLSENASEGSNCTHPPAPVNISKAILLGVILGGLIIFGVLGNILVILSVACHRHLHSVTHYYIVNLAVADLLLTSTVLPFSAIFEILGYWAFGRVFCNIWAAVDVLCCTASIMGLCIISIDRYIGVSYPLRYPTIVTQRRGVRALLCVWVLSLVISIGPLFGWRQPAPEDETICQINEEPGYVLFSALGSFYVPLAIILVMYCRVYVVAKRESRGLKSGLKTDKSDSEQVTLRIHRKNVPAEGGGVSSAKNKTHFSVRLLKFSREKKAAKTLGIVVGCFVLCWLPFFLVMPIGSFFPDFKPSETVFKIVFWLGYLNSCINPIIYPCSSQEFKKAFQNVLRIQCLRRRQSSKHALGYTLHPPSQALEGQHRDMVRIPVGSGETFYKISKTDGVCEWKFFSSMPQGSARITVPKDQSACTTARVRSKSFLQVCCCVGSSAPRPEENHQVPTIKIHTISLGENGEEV
# ASSAY TEXT: α1 antagonistic activity on the isolated anococcygeus muscle of the rat (against phenylephrine or methoxamine)
# MEASUREMENT CONTEXT: antagonist of phenylephrine or methoxamine, 37°, 10^-6 to 10^-4 M test drug, 30 min equilibration, read-out: pA2 (α1) (converted)
# Protocol: The α1 antagonistic activity can be evaluated by a number of different methods. One method involves assessing the activity on the isolated anococcygeus muscle of the rat. The method is based on that of Gillespie, Br.J.Pharmac., 1972, 45, 404-416. In the procedure male rats (250-360 g) are killed by a blow on the head and bled. […] Longitudinal muscle contractions are recorded using isotonic transducers. […]
I'd appreciate it if you could supply Kb values for the items below.
Value expressed in nM; do not type the unit.

## Input Given CN([C@H]1CCN2CCc3ccccc3[C@H]2C1)S(=O)(=O)C(F)(F)F (relative stereo) [Example 1] , report its Kb on α1-adrenoceptor (Rattus norvegicus, UniProt P43140).
## Output 3240

## Input Give Kb for this entry on α1-adrenoceptor (Rattus norvegicus, UniProt P43140): CN([C@H]1CCN2CCc3ccccc3[C@H]2C1)S(=O)(=O)CCl (relative stereo) [Example 3]
## Output 245

## Input Enter recorded Kb with α1-adrenoceptor (Rattus norvegicus, UniProt P43140) for CN([C@H]1CCN2CCc3ccccc3[C@H]2C1)S(=O)(=O)CCCCl (relative stereo) [Example 4] here.
## Output 288

## Input // fetch Kb for CN([C@H]1CCN2CCc3ccccc3[C@H]2C1)S(=O)(=O)CC(F)(F)F (relative stereo) [Example 2] ; system: α1-adrenoceptor (Rattus norvegicus, UniProt P43140)
## Output 1170

----------
# EXPERIMENTAL SYSTEM: α2-adrenoceptor (Rattus norvegicus, UniProt P22909)
# Construct: from tissue; host or cells: desheathed vas deferens of sexually mature rats
# Sequence (P22909 1-465): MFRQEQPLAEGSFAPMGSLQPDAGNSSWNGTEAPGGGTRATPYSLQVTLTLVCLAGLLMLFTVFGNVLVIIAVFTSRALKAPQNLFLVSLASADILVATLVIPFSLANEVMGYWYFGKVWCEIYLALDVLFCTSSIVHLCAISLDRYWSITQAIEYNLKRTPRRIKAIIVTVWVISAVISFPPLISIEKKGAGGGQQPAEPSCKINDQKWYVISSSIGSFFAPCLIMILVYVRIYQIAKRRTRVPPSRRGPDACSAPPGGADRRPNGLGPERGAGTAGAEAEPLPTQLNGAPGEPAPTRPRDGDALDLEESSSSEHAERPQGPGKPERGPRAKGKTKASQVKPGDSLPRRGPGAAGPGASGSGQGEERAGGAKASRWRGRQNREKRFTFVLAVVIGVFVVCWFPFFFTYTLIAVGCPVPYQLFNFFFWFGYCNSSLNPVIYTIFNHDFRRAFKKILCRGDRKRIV
# ASSAY TEXT: α2-adrenoceptor antagonistic activity on the rat field stimulated vas deferens preparation (against clonidine)
# MEASUREMENT CONTEXT: antilog of (α2 pA2 - α1 pA2)
RESULT TYPE: α2/α1 selectivity
# respond with the number and nothing more

## Input Tell me measured α2/α1 selectivity for CN([C@H]1CCN2CCc3ccccc3[C@H]2C1)S(=O)(=O)C(F)(F)F (relative stereo) please.
## Output 46

## Input Item CN([C@H]1CCN2CCc3ccccc3[C@H]2C1)S(=O)(=O)CC(F)(F)F (relative stereo) : provide α2/α1 selectivity
## Output 43

## Input Dear colleague, please send me the reported α2/α1 selectivity for CN([C@H]1CCN2CCc3ccccc3[C@H]2C1)S(=O)(=O)CCCCl (relative stereo) when you can.
## Output 27.5

## Input Indicate its recorded α2/α1 selectivity; the compound in question is CN([C@H]1CCN2CCc3ccccc3[C@H]2C1)S(=O)(=O)CCl (relative stereo)
## Output 45

----------
# EXPERIMENTAL SYSTEM: α2-adrenoceptor (Rattus norvegicus, UniProt P22909)
# Construct: from tissue; host or cells: desheathed vas deferens of sexually mature rats
# ASSAY TEXT: α2-adrenoceptor antagonistic activity on the rat field stimulated vas deferens preparation (against clonidine)
# MEASUREMENT CONTEXT: rat field stimulated vas deferens, clonidine as agonist, 37°, 90 min after introduction of antagonist; Arunlakshana & Schild; read-out: pA2 (α2) (converted)
RESULT TYPE: Kb (nM)
Please respond with the number in nM and leave the unit unwritten.

## Input Give the reported Kb for this compound. CN([C@H]1CCN2CCc3ccccc3[C@H]2C1)S(=O)(=O)CCl (relative stereo) [Example 3]
## Output 8.91

## Input Please report the measured Kb for CN([C@H]1CCN2CCc3ccccc3[C@H]2C1)S(=O)(=O)C(F)(F)F (relative stereo) [Example 1]
## Output 70.8

## Input Quickly give me recorded Kb for CN([C@H]1CCN2CCc3ccccc3[C@H]2C1)S(=O)(=O)CC(F)(F)F (relative stereo) [Example 2]
## Output 27.5

## Input Given CN([C@H]1CCN2CCc3ccccc3[C@H]2C1)S(=O)(=O)CCCCl (relative stereo) [Example 4] , respond with its Kb.
## Output 8.32
